- protocolNotes: qHTS RealTime-Glo MT Cell Viability Assay in HepG2 cells - 8 hour (AID 1224873); further: on the % scale 0 is the no-effect control and ±100 the full control effect; nearly all actives have a fitted effect of over 55% in size
- testParameters: RealTime-Glo luminescence; series mostly up to 76.8 µM
Results filed as inconclusive are left out. The source made the active and inactive calls. The call rests on the fitted dose curve; in most records, active means well fitted cell-killing curve with a large enough effect in the repeat runs; inconclusive means weak or mixed curves; inactive means flat fitted curve, though single readings scatter.
experimentalReadout: viability change, negative = cytotoxic

// solved cases for viability change, negative = cytotoxic follow
> print(dat)
                          compound                     experimentalreadout  reportedresult
1          Nc1cccc([N+](=O)[O-])c1  viability change, negative = cytotoxic        inactive
2  CN(C)CCN(Cc1ccc(Cl)cc1)c1ccccn1  viability change, negative = cytotoxic        inactive
3              Cc1ncc(CO)c(C=O)c1O  viability change, negative = cytotoxic        inactive
4           CCO[Si](CCCCl)(OCC)OCC  viability change, negative = cytotoxic        inactive

From here, focus on the item given below.
Requested read-out: viability change, negative = cytotoxic. Entry: CCOC(=O)C(F)(F)F
inactive

###

- protocolNotes: qHTS assay for small molecule disruptors of the mitochondrial membrane potential - cell viability (AID 720634);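 further: human HepG2 liver cancer cells; on the % scale 0 is the no-effect control and ±100 the full control effect; nearly all actives have a fitted effect of over 20% in size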
- testParameters: HepG2 viability, ATP luminescence (CellTiter-Glo), 1 h; series mostly up to 83.2 µM
Records with an inconclusive call do not appear. Activity calls are given as the source filed them. Calls come from the whole dose curve.
experimentalReadout: outcome

> print(dat)
                            linenotation  experimentalreadout  reportedresult
1  CC(C)(COC(=O)c1ccccc1)COC(=O)c1ccccc1              outcome        inactive
2                        C=C(C)C(=O)OCCO              outcome        inactive
3                       O=C(O)c1ccccc1Cl              outcome        inactive

###

- protocolNotes: Caspase-3/7 induction in HepG2 cells by small molecules, qHTS cell viability counter screen (AID 1346981); further: nearly all actives have a fitted effect of over 30% in size
- testParameters: CellTiter-Fluor fluorescence, 17 h; series mostly up to 92.4 µM
Results filed as inconclusive are left out. Calls of active or inactive are those of the source. Calls come from the whole dose curve; as a rule, active = well fitted cell-killing curve with a large enough effect in the repeat runs; inconclusive = weak or mixed curves, or effect the other way; inactive = flat fitted curve, though single readings scatter.
Give your call using only these classes: Y = active, N = inactive

> print(dat)
                                   molecule  classname
1                CCC(C)O (stereo not drawn)          N
2                     CC(C)(CO)[N+](=O)[O-]          N
3               COc1ccc2cccc(CCNC(C)=O)c2c1          N
4                         C=C(C)C(=O)OCCOCC          N
5  CC(C)O.CC(C)O.CCOC(=O)/C=C(\C)O.CCOC(=O)/C=C(\C)O.[Ti]          N
6  O=C1[C@H]2CCCC[C@H]2C(=O)N1CCCCN1CCN(c2nsc3ccccc23)CC1          N
7                       CCCCCCCCCCCc1ccccc1          N
8  O=C1OC(=O)C2C3C=CC(C3)C12 (stereo not drawn)          N

So what was the verdict on CCN(CC)CCNc1ccc(CNC=O)c2sc3ccc(OC)cc3c(=O)c12 in this test?
Y

So what was the verdict on COc1ccc(S(=O)(=O)N2C(=O)[C@@](c3ccccc3OC)(N3C[C@H](O)C[C@H]3C(=O)N(C)C)c3cc(Cl)ccc32)c(OC)c1 in this test?
Y

So what was the verdict on COc1cc(Cl)ccc1Oc1ccc(Cl)cc1Cl in this test?
N

So what was the verdict on c1cc(CCCc2ccncc2)ccn1 in this test?
N

So what was the verdict on C1CCCNCCC1 in this test?
N

So what was the verdict on Cc1cccc(C)c1OCC(=O)N[C@@H](Cc1ccccc1)[C@@H](O)C[C@H](Cc1ccccc1)NC(=O)[C@H](C(C)C)N1CCCNC1=O in this test?
Y

So what was the verdict on CN(C)CCN(Cc1ccccc1)c1ccccn1 in this test?
N

So what was the verdict on O[C@@H](COc1cccc2ncccc12)CN1CCN(C2c3ccccc3[C@@H]3[C@H](c4ccccc42)C3(F)F)CC1 (stereo partly drawn) in this test?
Y

So what was the verdict on O=C1C(O)=C(O)C(=O)C(O)=C1O in this test?
N

So what was the verdict on Cc1oc(-c2ccccc2)nc1CCOc1cccc2c1ccn2CCC(=O)O in this test?
Y

So what was the verdict on O=CC1CC=CCC1 (stereo not drawn) in this test?
N

So what was the verdict on CCOC(=O)Cc1cccc2ccccc12 in this test?
N

So what was the verdict on O=C(O)C1(C(=O)O)CCC1.[NH2-].[NH2-].[Pt+2] in this test?
N

So what was the verdict on Nc1ccc(S(=O)(=O)Nc2ccccc2)cc1 in this test?
N

So what was the verdict on Nc1ncn([C@H]2C[C@H](O)[C@@H](CO)O2)c(=O)n1 in this test?
N

###

- protocolNotes: qHTS assay to identify small molecule antagonists of the thyroid receptor (TR) signaling pathway - cell viability counter screen (AID 743064); further: nearly all actives have a fitted effect of over 50% in size
- testParameters: GH3.TRE-Luc viability, CellTiter-Fluor, 24 h; series mostly up to 70.3 µM
Results filed as inconclusive are left out. Active and inactive are the calls of the source. Calls follow the shape of the dose curve; as a rule, active = well fitted cell-killing curve with a large enough effect in the repeat runs; inconclusive = weak or mixed curves, or effect the other way; inactive = no such curve, though single readings can be large or run the other way.
Give your call using only these classes: label 1 = active, label 0 = inactive

> print(dat)
                                   compound  classname
1  CC(C)O.CC(C)O.CCOC(=O)/C=C(\C)O.CCOC(=O)/C=C(\C)O.[Ti]    label 0

So what was the verdict on C/C=C/C=C/CO in this test?
label 0

So what was the verdict on O=C(c1ccc(F)cc1)C1CCN(CCn2c(=S)[nH]c3ccccc3c2=O)CC1 in this test?
label 0

So what was the verdict on CCCOC(C(=O)OC1CCN(C)CC1)(c1ccccc1)c1ccccc1 in this test?
label 1

So what was the verdict on CC1(c2ccccc2)OC(C(=O)O)=CC1=O (stereo not given) in this test?
label 0

So what was the verdict on CC(C)(CO)[N+](=O)[O-] in this test?
label 0

So what was the verdict on O=C1CCC(=O)O1 in this test?
label 0

So what was the verdict on CCN(CC)CCOC(=O)C(Cc1cccc2ccccc12)CC1CCCO1 (stereo not given) in this test?
label 0

So what was the verdict on CC(=O)c1cccc([N+](=O)[O-])c1 in this test?
label 0

So what was the verdict on CC(C)(COC(=O)c1ccccc1)COC(=O)c1ccccc1 in this test?
label 0

So what was the verdict on NCCCN1CCOCC1 in this test?
label 0

So what was the verdict on CC(C)CC(=O)C1C(=O)c2ccccc2C1=O in this test?
label 0

So what was the verdict on CCN(CC)CCNc1ccc(CNC=O)c2sc3ccc(OC)cc3c(=O)c12 in this test?
label 1

So what was the verdict on CCCCCCCCCCCCN1CCCCCC1=O in this test?
label 0

So what was the verdict on c1ccc(CNCCNCc2ccccc2)cc1 in this test?
label 0

So what was the verdict on Cc1[nH]c(C)c(Cl)c(=O)c1Cl in this test?
label 0

So what was the verdict on CC(C)Nc1ccc(NC(C)C)c2c1C(=O)c1ccccc1C2=O in this test?
label 0

So what was the verdict on CC(C)(O)c1ccc(CNC(=O)c2cccnc2Oc2ccc(F)cc2)cc1 in this test?
label 0

So what was the verdict on CC1=CC=C(C(C)C)CC1 in this test?
label 0

So what was the verdict on CCc1c(C(=O)NN2CCCCC2)nn(-c2ccc(Cl)cc2Cl)c1-c1ccc(Br)cc1 in this test?
label 1

So what was the verdict on CCCCC(=O)OCC(=O)[C@H]1[C@H](C)C[C@H]2[C@@H]3C[C@H](F)C4=CC(=O)C=C[C@]4(C)[C@@]3(F)[C@@H](O)C[C@@]21C in this test?
label 0

So what was the verdict on COc1ccc(S(=O)(=O)N2C(=O)[C@@](c3ccccc3OC)(N3C[C@H](O)C[C@H]3C(=O)N(C)C)c3cc(Cl)ccc32)c(OC)c1 in this test?
label 1

So what was the verdict on O=P(O)(OCc1ccccc1)OCc1ccccc1 in this test?
label 0

So what was the verdict on Cc1oc2c(NC(=O)c3c(Cl)cccc3Cl)cccc2c1C(C)(C)O in this test?
label 1

So what was the verdict on Cc1cc(N)c2cc(NC(=O)Nc3ccc4nc(C)cc(N)c4c3)ccc2n1 in this test?
label 1

###

- targetDesc: Estrogen receptor beta (Homo sapiens) (UniProt Q92731)
- Sequence (Q92731 whole entry, looked up): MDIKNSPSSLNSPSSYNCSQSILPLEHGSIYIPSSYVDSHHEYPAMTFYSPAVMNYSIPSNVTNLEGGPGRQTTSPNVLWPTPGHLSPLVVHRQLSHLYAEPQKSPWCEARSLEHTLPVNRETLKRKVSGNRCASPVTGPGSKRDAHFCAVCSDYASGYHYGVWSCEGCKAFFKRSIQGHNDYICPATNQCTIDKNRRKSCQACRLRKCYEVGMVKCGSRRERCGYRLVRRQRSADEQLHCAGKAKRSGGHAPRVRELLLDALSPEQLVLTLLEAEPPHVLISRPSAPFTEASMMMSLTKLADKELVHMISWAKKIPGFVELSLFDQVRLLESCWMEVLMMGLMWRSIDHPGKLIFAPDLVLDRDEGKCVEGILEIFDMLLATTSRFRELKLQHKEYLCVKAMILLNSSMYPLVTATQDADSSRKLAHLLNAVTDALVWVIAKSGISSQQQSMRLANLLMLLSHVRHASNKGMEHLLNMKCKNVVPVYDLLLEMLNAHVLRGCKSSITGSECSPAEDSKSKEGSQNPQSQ
- protocolNotes: qHTS assay to identify small molecule agonists of the estrogen receptor beta (ER-beta) signaling pathway (AID 1259377); on activation: on the % scale 0 is the no-effect control and ±100 the full control effect
- testParameters: ER-beta-UAS-bla HEK293T, beta-lactamase FRET ratio, 16 h; series mostly up to 92.4 µM
Inconclusive results are not listed. The source made the active and inactive calls. Calls come from the whole dose curve; as a rule, active = well fitted activation curve with a large enough effect in the signal ratio in the repeat runs (not every such curve was filed as active); inconclusive = weak or mixed curves, or effect the other way; inactive = flat fitted curve, though single readings scatter; the % refers to the signal ratio.
Give your call using only these classes: active, inactive

> print(dat)
                                   compound  classname
1                 CCCCCCCCCCCCCCOS(=O)(=O)O   inactive
2                            CCOc1ccc(O)cc1   inactive
3  Cc1cc(N)c2cc(NC(=O)Nc3ccc4nc(C)cc(N)c4c3)ccc2n1   inactive
4         COc1ccc(C(=O)c2ccc(OC)cc2O)c(O)c1     active
5  CCCCC(CC)COC(=O)COc1ccc(Cl)cc1Cl (stereo not drawn)   inactive
6       CC(CC=O)c1ccccc1 (stereo not drawn)   inactive
7             S=C([S-])NCCNC(=S)[S-].[Mn+2]   inactive
8                   CCOC(=O)C(=O)CCc1ccccc1   inactive

So what was the verdict on CCCCOC(=O)CCCCCCCC(=O)OCCCC in this test?
inactive

So what was the verdict on Nc1ccc([N+](=O)[O-])c(C(F)(F)F)c1 in this test?
inactive

Values from PubChem BioAssay (Tox21)
